target: VEGF165 (recombinant human vascular endothelial growth factor, 165 aa form) (Homo sapiens, UniProt P15692-4 P15692-4:27-191); experiment: filter; PBS, 0.01% HSA, 37 C; Kd1, X1 0.19, Kd2 10 nM; details: tags: gift from N. Ferrara, Genentech; chain copies: 2 (dimer, stated); label: 32P
Sequence (P15692 other isoform, or with tags, fused parts or gaps): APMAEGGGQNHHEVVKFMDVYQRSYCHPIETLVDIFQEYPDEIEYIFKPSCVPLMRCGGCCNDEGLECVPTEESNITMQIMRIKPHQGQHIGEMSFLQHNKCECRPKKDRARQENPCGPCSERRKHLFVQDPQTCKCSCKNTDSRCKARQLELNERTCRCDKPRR
pKd: −log10 of the molar value.
observed.property: pKd

binder="ligand 40 (ssRNA) RNA: GGGAGCUCAGAAUAAACGCUCAAGACCCAUCGUCAACGGUUGAGUCUGUCCCGUUCGACAUGAGGCCCGGAUCCGGC" recorded_measurement=9.72
